A compilation of pIC50 values for UniProt:P08575 from the published literature.
# test.target: UniProt:P08575
# Sequence (P08575 whole entry): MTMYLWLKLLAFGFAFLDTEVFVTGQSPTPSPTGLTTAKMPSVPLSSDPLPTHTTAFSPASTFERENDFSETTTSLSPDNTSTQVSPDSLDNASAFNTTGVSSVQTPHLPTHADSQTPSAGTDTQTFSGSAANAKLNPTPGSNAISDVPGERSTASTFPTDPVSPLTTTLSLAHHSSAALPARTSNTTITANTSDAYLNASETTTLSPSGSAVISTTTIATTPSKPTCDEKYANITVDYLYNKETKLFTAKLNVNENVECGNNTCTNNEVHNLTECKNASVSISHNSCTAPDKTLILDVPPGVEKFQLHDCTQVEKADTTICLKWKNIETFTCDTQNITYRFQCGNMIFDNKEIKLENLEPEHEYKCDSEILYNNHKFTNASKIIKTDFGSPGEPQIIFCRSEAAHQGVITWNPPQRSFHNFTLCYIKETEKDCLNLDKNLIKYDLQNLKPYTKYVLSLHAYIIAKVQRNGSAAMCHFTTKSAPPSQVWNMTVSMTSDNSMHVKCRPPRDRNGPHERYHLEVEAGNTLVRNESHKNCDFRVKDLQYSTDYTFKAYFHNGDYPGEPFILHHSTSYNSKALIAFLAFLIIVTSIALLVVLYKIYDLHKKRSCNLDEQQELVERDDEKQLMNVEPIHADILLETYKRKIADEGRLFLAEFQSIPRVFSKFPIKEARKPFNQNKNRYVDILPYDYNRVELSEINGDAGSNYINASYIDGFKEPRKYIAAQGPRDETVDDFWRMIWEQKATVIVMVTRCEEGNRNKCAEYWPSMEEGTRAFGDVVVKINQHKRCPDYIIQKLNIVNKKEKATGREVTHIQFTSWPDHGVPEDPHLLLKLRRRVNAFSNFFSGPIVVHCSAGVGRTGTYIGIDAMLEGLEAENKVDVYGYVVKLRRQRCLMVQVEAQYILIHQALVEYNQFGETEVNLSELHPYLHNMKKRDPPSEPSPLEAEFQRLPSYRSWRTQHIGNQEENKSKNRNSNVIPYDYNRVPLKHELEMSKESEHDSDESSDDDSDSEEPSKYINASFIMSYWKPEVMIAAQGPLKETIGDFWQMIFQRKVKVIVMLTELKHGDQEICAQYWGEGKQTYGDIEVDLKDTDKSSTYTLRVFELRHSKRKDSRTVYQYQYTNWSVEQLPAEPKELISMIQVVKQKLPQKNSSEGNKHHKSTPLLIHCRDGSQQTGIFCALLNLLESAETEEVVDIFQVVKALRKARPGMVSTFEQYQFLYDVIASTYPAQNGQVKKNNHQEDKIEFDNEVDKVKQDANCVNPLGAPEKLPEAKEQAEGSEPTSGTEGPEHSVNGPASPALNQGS
Please keep in mind that pIC50 is minus log10 of the molar concentration; only the number is needed.

Here are 6 molecules together with their reported answers.
>  <molecule>
NS(=O)(=O)c1ccccc1-c1ccc(CC(Cc2ccc(C(F)(F)P(=O)(O)O)cc2)(c2ccccc2)n2nnc3ccccc32)cc1 (stereo not drawn)

>  <test.target>
UniProt:P08575

>  <result.type>
pIC50

>  <observed.result>
4.30

$$$$
>  <molecule>
O=P(O)(O)C(F)(F)c1ccc(CC(Cc2ccc(-c3ccccc3-c3nn[nH]n3)cc2)(c2ccccc2)n2nnc3ccccc32)cc1 (stereo not drawn)

>  <test.target>
UniProt:P08575

>  <result.type>
pIC50

>  <observed.result>
4.30

$$$$
>  <molecule>
CC1=C(O)/C(=C/[C@@H](C)CCC/C(C)=C/CC/C(C)=C/CCc2ccoc2)OC1=O

>  <test.target>
UniProt:P08575

>  <result.type>
pIC50

>  <observed.result>
5.92

$$$$
>  <molecule>
O=C(O)c1cc2c(C#Cc3cccc(F)c3)c(-c3ccccc3)oc2cc1O

>  <test.target>
UniProt:P08575

>  <result.type>
pIC50

>  <observed.result>
5.00

$$$$
>  <molecule>
O=P(O)(O)C(F)(F)c1ccc(CC(Cc2ccc(OCc3ccccc3)cc2)(c2ccccc2)n2nnc3ccccc32)cc1 (stereo not drawn)

>  <test.target>
UniProt:P08575

>  <result.type>
pIC50

>  <observed.result>
4.19

$$$$
>  <molecule>
O=P(O)(O)C(F)(F)c1ccc(COc2ccccc2OCc2ccc(C(F)(F)P(=O)(O)O)cc2)cc1

>  <test.target>
UniProt:P08575

>  <result.type>
pIC50

>  <observed.result>
4.38

$$$$

Task item: # value lookup — system UniProt:P08575, readout pIC50, item O=P(O)(O)C(F)(F)c1ccc(CC(Cc2ccc(C(F)(F)P(=O)(O)O)cc2)(c2nnn[nH]2)n2nnc3ccccc32)cc1
Reply: 5.14

Task item: Request: pIC50, test system UniProt:P08575, entry O=P(O)(O)C(F)(F)c1ccc(CC(Cc2ccc(C(F)(F)P(=O)(O)O)cc2)(c2ccc3ccccc3n2)n2nnc3ccccc32)cc1
Reply: 4.30

###

The following molecules were reported with IC50 values on Receptor-type tyrosine-protein phosphatase C (Homo sapiens, UniProt P08575) in different studies.
The answer is to be given in µM; state only the numeric part.

Here are 2 molecules together with their reported answers.
>  <molecule>
O=C(O)c1cc2c(C#Cc3cccc(Cl)c3)c(-c3ccccc3)oc2cc1O

>  <observed.result>
9

$$$$
>  <molecule>
CCCOc1c2cccc1Cc1cc(C(O)(P(=O)(O)O)P(=O)(O)O)cc(c1O)Cc1cccc(c1OCCC)Cc1cccc(c1O)C2

>  <observed.result>
8.4

$$$$

Task item: Recorded IC50 for CC(Cc1ccc(C(F)(F)P(=O)(O)O)cc1)(c1ccccc1)n1nnc2ccccc21 (stereo not drawn) , please?
Reply: 50

Task item: # lookup: IC50 of O=C(OCc1ccccc1)C(Cc1ccc(C(F)(F)P(=O)(O)O)cc1)(c1ccccc1)n1nnc2ccccc21 (stereo not drawn)
Reply: 50

###

Before we begin, note that these IC50 values for UniProtKB P08575 originate from several publications.
Quick reminder: number only, in µM, skip the unit.

>  <compound>
CCc1oc2cc(S(=O)(=O)Nc3nccs3)ccc2c1C(=O)c1cc(Br)c(O)c(Br)c1

>  <test.target>
UniProtKB P08575

>  <IC50, µM>
66.7

$$$$
>  <compound>
O=P(O)(O)C(F)(F)c1ccc(CC(C/C=C/c2ccccc2)(c2ccccc2)n2nnc3ccccc32)cc1 (centres undefined)

>  <test.target>
UniProtKB P08575

>  <IC50, µM>
50

$$$$

We next turn to a different compound, shown below.
Task item: // query IC50 value for entry COC(=O)C(CCCc1ccccc1)(Cc1ccc(NS(=O)(=O)O)cc1)C(=O)OC
Reply: 29

###

From various publications: pIC50 for Receptor-type tyrosine-protein phosphatase C (Homo sapiens, UniProt P08575).
# reply with the number alone; pIC50 is -log10 of concentration in mol/L

For orientation, consider the following solved cases.
>  <compound>
O=C(O)COc1c(O)cc(-c2cc(C(F)(F)F)cc(C(F)(F)F)c2)cc1OCc1cccc(C(F)(F)F)c1

>  <test.target>
Receptor-type tyrosine-protein phosphatase C (Homo sapiens, UniProt P08575)

>  <pIC50>
6.55

$$$$
>  <compound>
O=P(O)(O)C(F)(F)c1ccc(COCCOCc2ccc(C(F)(F)P(=O)(O)O)cc2)cc1

>  <test.target>
Receptor-type tyrosine-protein phosphatase C (Homo sapiens, UniProt P08575)

>  <pIC50>
3.63

$$$$
>  <compound>
CC1=C(O)/C(=C/[C@@H](C)CCC/C(C)=C/CCC(C)(O)CCCc2ccoc2)OC1=O (some centres undefined)

>  <test.target>
Receptor-type tyrosine-protein phosphatase C (Homo sapiens, UniProt P08575)

>  <pIC50>
5.05

$$$$

Task item: Enter reported pIC50 observed with Receptor-type tyrosine-protein phosphatase C (Homo sapiens, UniProt P08575) for O=P(O)(O)C(F)(F)c1ccc(CC(Cc2ccc(C(F)(F)P(=O)(O)O)cc2)(c2ccccc2)n2nnc3ccccc32)cc1
Reply: 4.30

Task item: Give recorded pIC50 with Receptor-type tyrosine-protein phosphatase C (Homo sapiens, UniProt P08575) for the following compound: O=P(O)(O)C(F)(F)c1ccc(CC(Cc2ccc(-c3ccccc3)cc2)(c2ccccc2)n2nnc3ccccc32)cc1 (centres undefined)
Reply: 4.16

Task item: Write down the reported pIC50 of O=C(O)c1cc2c(C#Cc3ccc(Oc4ccccc4)cc3)c(-c3ccccc3)oc2cc1O , test system: Receptor-type tyrosine-protein phosphatase C (Homo sapiens, UniProt P08575).
Reply: 6.05

Task item: Missing value: pIC50, Receptor-type tyrosine-protein phosphatase C (Homo sapiens, UniProt P08575), entry O=C(O)c1cc2c(C#Cc3ccccc3)c(-c3ccccc3)oc2cc1O . Fill in?
Reply: 4.89

Task item: For the record CCCOc1c2cccc1Cc1cc(C(O)(P(=O)(O)O)P(=O)(O)O)cc(c1O)Cc1cccc(c1OCCC)Cc1cc(C(O)(P(=O)(O)O)P(=O)(O)O)cc(c1O)C2 , what value of pIC50 is listed for Receptor-type tyrosine-protein phosphatase C (Homo sapiens, UniProt P08575)?
Reply: 4.23
